- Tested on: HARA
- experimentDescription: relative viability (nuclei count vs DMSO), 5 days (fraction); higher = more cells survive
- experimentalSetup: first compound 0.006325 µM
Exercise: state measured relative viability for each of the compounds provided.
// keep it numeric: no unit symbol after the value

Recorded relative viability of CC(=O)O[C@@]12CO[C@@H]1C[C@H](O)[C@@]1(C)C(=O)[C@H](O)C3=C(C)[C@@H](OC(=O)[C@H](O)[C@@H](NC(=O)OC(C)(C)C)c4ccccc4)C[C@@](O)([C@@H](OC(=O)c4ccccc4)[C@H]21)C3(C)C [Docetaxel] + COc1cccc2cc(-c3nc([C@H]4CC[C@H](C(=O)O)CC4)n4ncnc(N)c34)[nH]c12 [OSI-027] (partner 0.5 µM) , please.
0.106

Recorded relative viability of CC(=O)O[C@@]12CO[C@@H]1C[C@H](O)[C@@]1(C)C(=O)[C@H](O)C3=C(C)[C@@H](OC(=O)[C@H](O)[C@@H](NC(=O)OC(C)(C)C)c4ccccc4)C[C@@](O)([C@@H](OC(=O)c4ccccc4)[C@H]21)C3(C)C [Docetaxel] + CCNC(=O)c1noc(-c2cc(C(C)C)c(O)cc2O)c1-c1ccc(CN2CCOCC2)cc1 [Luminespib] (partner 0.01 µM) , please.
0.0587

Recorded relative viability of CC(=O)O[C@@]12CO[C@@H]1C[C@H](O)[C@@]1(C)C(=O)[C@H](O)C3=C(C)[C@@H](OC(=O)[C@H](O)[C@@H](NC(=O)OC(C)(C)C)c4ccccc4)C[C@@](O)([C@@H](OC(=O)c4ccccc4)[C@H]21)C3(C)C [Docetaxel] + CC(=O)c1c(C)c2cnc(Nc3ccc(N4CCNCC4)cn3)nc2n(C2CCCC2)c1=O [Palbociclib] (partner 0.5 µM) , please.
0.128

Recorded relative viability of CC(=O)O[C@@]12CO[C@@H]1C[C@H](O)[C@@]1(C)C(=O)[C@H](O)C3=C(C)[C@@H](OC(=O)[C@H](O)[C@@H](NC(=O)OC(C)(C)C)c4ccccc4)C[C@@](O)([C@@H](OC(=O)c4ccccc4)[C@H]21)C3(C)C [Docetaxel] + C[C@@H](Oc1cc(-c2cnn(C3CCNCC3)c2)cnc1N)c1c(Cl)ccc(F)c1Cl [Crizotinib] (partner 1 µM) , please.
0.0907

---

- Tested on: NCI-H2126
- experimentDescription: relative viability (nuclei count vs DMSO), 5 days (fraction); higher = more cells survive
- experimentalSetup: first compound 0.08 µM
Exercise: state measured relative viability for each of the compounds provided.
// keep it numeric: no unit symbol after the value

Recorded relative viability of O=c1[nH]c2ccccc2n1C1CCN(CCCC(c2ccc(F)cc2)c2ccc(F)cc2)CC1 [Pimozide] + CS(=O)(=O)CCNCc1ccc(-c2ccc3ncnc(Nc4ccc(OCc5cccc(F)c5)c(Cl)c4)c3c2)o1 [Lapatinib] (partner 2 µM) , please.
0.743

Recorded relative viability of O=c1[nH]c2ccccc2n1C1CCN(CCCC(c2ccc(F)cc2)c2ccc(F)cc2)CC1 [Pimozide] + Nc1nc2[nH]cc(CCc3ccc(C(=O)N[C@@H](CCC(=O)O)C(=O)O)cc3)c2c(=O)[nH]1 [Pemetrexed] (partner 0.2 µM) , please.
0.65

Recorded relative viability of Cc1cnc(-c2cnc(NCCNc3ccc(C#N)cn3)nc2-c2ccc(Cl)cc2Cl)[nH]1 + N=C(N)NC(=N)NCCc1ccccc1 [Phenformin] (partner 250 µM) , please.
0.526

---

- System: NCI-H1563
- experimentDescription: relative viability (nuclei count vs DMSO), 5 days (fraction); higher = more cells survive
- experimentalSetup: first compound 8 µM
Exercise: state measured relative viability for each of the molecules provided.
// keep it numeric: no unit symbol after the value

Recorded relative viability of O=c1[nH]c2ccccc2n1C1CCN(CCCC(c2ccc(F)cc2)c2ccc(F)cc2)CC1 [Pimozide] + Nc1nc2[nH]cc(CCc3ccc(C(=O)N[C@@H](CCC(=O)O)C(=O)O)cc3)c2c(=O)[nH]1 [Pemetrexed] (partner 0.2 µM) , please.
0.734

Recorded relative viability of O=c1[nH]c2ccccc2n1C1CCN(CCCC(c2ccc(F)cc2)c2ccc(F)cc2)CC1 [Pimozide] + Cc1nc(NC(=O)N2CCC[C@H]2C(N)=O)sc1-c1ccnc(C(C)(C)C(F)(F)F)c1 [Alpelisib] (partner 2 µM) , please.
0.739

Recorded relative viability of O=c1[nH]c2ccccc2n1C1CCN(CCCC(c2ccc(F)cc2)c2ccc(F)cc2)CC1 [Pimozide] + CC(C)C[C@H](NC(=O)[C@H](Cc1ccccc1)NC(=O)c1cnccn1)B(O)O [Bortezomib] (partner 0.002 µM) , please.
0.583

---

- Tested on: NCI-H1437
- experimentDescription: relative viability (nuclei count vs DMSO), 5 days (fraction); higher = more cells survive
- experimentalSetup: first compound 0.005 µM
measuredProperty: relative viability
// keep it numeric: no unit symbol after the value

Recorded relative viability of Nc1ccn([C@@H]2O[C@H](CO)[C@@H](O)[C@@H]2O)c(=O)n1 [Cytarabine] + O=C(c1cc(Cc2n[nH]c(=O)c3ccccc23)ccc1F)N1CCN(C(=O)C2CC2)CC1 [Olaparib] (partner 8 µM) , please.
0.529

Recorded relative viability of Nc1ccn([C@@H]2O[C@H](CO)[C@@H](O)[C@@H]2O)c(=O)n1 [Cytarabine] + CC(=O)Nc1cccc(-n2c(=O)n(C3CC3)c(=O)c3c(Nc4ccc(I)cc4F)n(C)c(=O)c(C)c32)c1 [Trametinib] (partner 0.02 µM) , please.
0.503

---

Exercise: state measured relative viability for each of the compounds provided.
- Test system: NCI-H1915
- experimentDescription: relative viability (nuclei count vs DMSO), 5 days (fraction); higher = more cells survive
- experimentalSetup: first compound 158.11 µM
// keep it numeric: no unit symbol after the value

Recorded relative viability of O=C(O)CCCCC(CCSCc1ccccc1)SCc1ccccc1 (stereo not given) [CPI-613] + CS(=O)(=O)N1CCN(Cc2cc3nc(-c4cccc5[nH]ncc45)nc(N4CCOCC4)c3s2)CC1 [Pictilisib] (partner 1 µM) , please.
0.927

Recorded relative viability of O=C(O)CCCCC(CCSCc1ccccc1)SCc1ccccc1 (stereo not given) [CPI-613] + Cc1nc(NC(=O)N2CCC[C@H]2C(N)=O)sc1-c1ccnc(C(C)(C)C(F)(F)F)c1 [Alpelisib] (partner 2 µM) , please.
0.925

Recorded relative viability of O=C(O)CCCCC(CCSCc1ccccc1)SCc1ccccc1 (stereo not given) [CPI-613] + C[C@]1(O)C[C@@H](c2nc(-c3ccc4ccc(-c5ccccc5)nc4c3)c3c(N)nccn32)C1 [Linsitinib] (partner 1 µM) , please.
0.964

Recorded relative viability of O=C(O)CCCCC(CCSCc1ccccc1)SCc1ccccc1 (stereo not given) [CPI-613] + CC(C)C[C@H](NC(=O)[C@H](Cc1ccccc1)NC(=O)c1cnccn1)B(O)O [Bortezomib] (partner 0.002 µM) , please.
0.799

Recorded relative viability of O=C(O)CCCCC(CCSCc1ccccc1)SCc1ccccc1 (stereo not given) [CPI-613] + COc1cccc2cc(-c3nc([C@H]4CC[C@H](C(=O)O)CC4)n4ncnc(N)c34)[nH]c12 [OSI-027] (partner 0.5 µM) , please.
0.447

---

Exercise: state measured relative viability for each of the molecules provided.
- System: HOP-62
- experimentDescription: relative viability (nuclei count vs DMSO), 5 days (fraction); higher = more cells survive
- experimentalSetup: first compound 50 µM
// keep it numeric: no unit symbol after the value

Recorded relative viability of O=C(O)CCCCC(CCSCc1ccccc1)SCc1ccccc1 (configuration not stated) [CPI-613] + CS(=O)(=O)CCNCc1ccc(-c2ccc3ncnc(Nc4ccc(OCc5cccc(F)c5)c(Cl)c4)c3c2)o1 [Lapatinib] (partner 2 µM) , please.
0.935

Recorded relative viability of O=C(O)CCCCC(CCSCc1ccccc1)SCc1ccccc1 (configuration not stated) [CPI-613] + Cc1cc(Nc2cc(N3CCN(C)CC3)nc(Sc3ccc(NC(=O)C4CC4)cc3)n2)n[nH]1 [Tozasertib] (partner 0.1 µM) , please.
0.286

Recorded relative viability of O=C(O)CCCCC(CCSCc1ccccc1)SCc1ccccc1 (configuration not stated) [CPI-613] + N=C(N)NC(=N)NCCc1ccccc1 [Phenformin] (partner 250 µM) , please.
0.62

Recorded relative viability of O=C(O)CCCCC(CCSCc1ccccc1)SCc1ccccc1 (configuration not stated) [CPI-613] + NC(=O)Nc1cc(-c2cccc(F)c2)sc1C(=O)N[C@H]1CCCNC1 [AZD7762] (partner 0.2 µM) , please.
0.649

Recorded relative viability of O=C(O)CCCCC(CCSCc1ccccc1)SCc1ccccc1 (configuration not stated) [CPI-613] + Cc1nc(NC(=O)N2CCC[C@H]2C(N)=O)sc1-c1ccnc(C(C)(C)C(F)(F)F)c1 [Alpelisib] (partner 2 µM) , please.
0.916

Recorded relative viability of O=C(O)CCCCC(CCSCc1ccccc1)SCc1ccccc1 (configuration not stated) [CPI-613] + CS(=O)(=O)N1CCN(Cc2cc3nc(-c4cccc5[nH]ncc45)nc(N4CCOCC4)c3s2)CC1 [Pictilisib] (partner 1 µM) , please.
0.704

Recorded relative viability of O=C(O)CCCCC(CCSCc1ccccc1)SCc1ccccc1 (configuration not stated) [CPI-613] + Cc1nc(Nc2ncc(C(=O)Nc3c(C)cccc3Cl)s2)cc(N2CCN(CCO)CC2)n1 [Dasatinib] (partner 0.075 µM) , please.
0.659
